For each entry below, report its GI50 value.
# Tested on: SK-OV-3
# Experiment notes: NCI tumour cell line growth inhibition, 48 h
Activity calls are given as the source filed them. No stated cut-off is given here; in the data, active = GI50 up to about 1.1 µM and inactive = higher.

Requested read-out GI50, target or system SK-OV-3, entry CC(C)(C)c1ccc(-c2nc3ccc([N+](=O)[O-])cc3c(=O)o2)cc1 31.5 µM (inactive)

Hi! What's the reported GI50 for Cc1cn2c(/C=C3/C(=O)Nc4ccccc43)c(-c3ccccc3)nc2s1 on SK-OV-3? 30.1 µM (inactive)

What value of GI50 on SK-OV-3 does COc1cc(C2S/C(=C/c3ccccc3)C(=O)N2c2cccc(NC(C)=O)c2)cc(OC)c1OC (stereo not given) have? 56 µM (inactive)

Item COc1cc(/C=C2\CCC(CN(C)C)C2=O)ccc1OC(=O)c1ccccc1 (stereo not given) with SK-OV-3 - GI50? 23.1 µM (inactive)

What value of GI50 on SK-OV-3 does c1cc2c(cc1NC1=NCCO1)OCO2 have? > 100 µM (inactive)

Kindly state the measured GI50 obtained for CC(C)(C)c1ccc(NS(=O)(=O)c2ccc(N)cc2)cc1 with SK-OV-3. 3.29 µM (inactive)

What measured GI50 is associated with O=C(Nn1cc(F)c(=O)[nH]c1=O)C12CC3CC(CC(C3)C1)C2 on SK-OV-3? 18.4 µM (inactive)

Form entry - test system: SK-OV-3; read-out: GI50; compound: C[C@@H](NC(=O)Cn1c(Cl)nc2ccccc21)c1ccccc1 > 100 µM (inactive)

Missing value: GI50, SK-OV-3, entry N#C[BH2-][n+]1ccc(C(=O)NNCC(F)(F)F)cc1 . Fill in? > 100 µM (inactive)

What measured GI50 is associated with C[C@@H]1C[C@]2(C[C@@H](C)C3[C@@H](CC4(C)[C@@H]5CCC6C(C)(C)OC(=O)C=C[C@]67C[C@@]5(CC[C@]34C)OO7)O2)OC1=O (stereo not given in full) on SK-OV-3? 43.6 µM (inactive)
